I'd appreciate it if you could supply cAMP induction values for the items below.
Assay: cAMP induction in EP2, EP4, beta2-AR and parental cells, confirmation, counter-screen for EP2 modulator project, cell-based, five parallel assays, C6 glioma, HEK293 (AID 1080)
Conditions: cAMP HTRF induction, measured here: EP4 receptor counter-screen, percent of 1 uM PGE2 response, plus low (about EC15) PGE2 agonist
About 640 (49%) of roughly 1,300 compounds were called active. So high a share suggests a set chosen from earlier hits. A selection follows.
Unit % implied. Number only.

What does the data say about its cAMP induction? Entry: O=c1c2ccccc2nc2n1C1(CCCCC1)Cc1ccccc1-2
-3.33

Entry to check: Cc1cc(NC(=O)CN2CCCC(C)C2)n(-c2nc3ccccc3s2)n1 (stereo unspecified)
16.2

Entry to check: CC1(C)Cc2nc3sc4c(SCC(=O)NC(c5ccccc5)c5ccccc5)ncnc4c3cc2CO1
71.8

Entry to check: COC(=O)C1=C(C)N(C)C(C)=C(C(=O)OC)C1c1cccc(Br)c1
-5.89

Entry to check: CCCCOc1ccc(-c2nnc(-c3ccco3)o2)cc1
-1.8

Entry to check: O=C(Nc1ccccc1N1CCCCC1)c1cccc(F)c1
20.9

Entry to check: CCc1ccccc1NC(=O)/C(=C/c1ccccc1)c1ccccc1
-11.7

Entry to check: CC(C)NC(=S)NN=C1CCCCCCCCCCC1
1.01

Entry to check: COc1ccccc1NC(=O)CSc1nnc(Cn2nnc(-c3ccccc3)n2)n1-c1ccccc1
-5.84

Entry to check: Cc1ccccc1C(=O)Nc1ccccc1Sc1ccccc1
-6.34

Entry to check: Cc1ccc(-n2c(SCC(=O)Nc3ccc4c(c3)OCO4)nnc2-c2ccoc2C)cc1
7.89

---

Experiment: cAMP induction in EP2, EP4, beta2-AR and parental cells, confirmation, counter-screen for EP2 modulator project, cell-based, five parallel assays, C6 glioma, HEK293 (AID 1080)
Settings: cAMP HTRF induction, measured here: EP4 receptor counter-screen, percent of 1 uM PGE2 response, plus low (about EC15) PGE2 agonist
Out of some 1,300 compounds screened, about 640 (49%) were called active. So high a share suggests a set chosen from earlier hits. A selection follows.
MEASURED_ENDPOINT: cAMP induction (%)
Unit % implied. Number only.

What does the data say about its cAMP induction? Entry: Cc1cccc(Cn2c(N3CCN(c4ccccc4)CC3)nc3c2c(=O)n(C)c(=O)n3C)c1
-5.29

Entry to check: CSc1nc2ccccc2c(=O)n1Cc1ccc(F)cc1
1.87

Entry to check: Oc1ccc(/C=N/N(Cc2ccccc2)c2ccccc2)cc1
-13.7

Entry to check: CCOc1ccc(NC(=O)CSc2ncnc3c2sc2ccccc23)cc1
80.8

Entry to check: CCOC(=O)c1c(C2CC2)csc1NC(=O)CSCc1c(C)noc1C
-15.3

Entry to check: CCOC(=O)c1c(N)nn(C(=O)c2ccccc2)c1-c1ccccc1
-2.57

Entry to check: Cc1ccc(Nc2cc(C)nc3c(C)ccc([N+](=O)[O-])c23)cc1
-1.3

Entry to check: O=c1cc(N2CCCCC2)c(-c2ccccc2)nn1Cc1cccc(F)c1
-7.11

Entry to check: CC1(C)CC2CC(C)(CN2c2ncnc3ccc(Br)cc23)C1 (stereo unspecified)
-0.537

Entry to check: O=C(CN1CCCCC1)N1c2ccccc2Sc2ccc(C(F)(F)F)cc21
-11.3

Entry to check: COc1ccc(C)c(Cn2c(-c3nonc3N)nc3ccccc32)c1
4.7

---

Test: cAMP induction in EP2, EP4, beta2-AR and parental cells, confirmation, counter-screen for EP2 modulator project, cell-based, five parallel assays, C6 glioma, HEK293 (AID 1080)
Details: cAMP HTRF induction, measured here: parent C6 cells counter-screen
Out of some 1,300 compounds screened, about 640 (49%) were called active. So high a share suggests a set chosen from earlier hits. Not all results are given here.
MEASURED_ENDPOINT: cAMP induction (%)
Unit % implied. Number only.

What does the data say about its cAMP induction? Entry: Cc1ccccc1C(=O)Nc1ccccc1Sc1ccccc1
-1.24

Entry to check: Cc1cccc(Cn2c(N3CCN(c4ccccc4)CC3)nc3c2c(=O)n(C)c(=O)n3C)c1
1.06

Entry to check: O=c1c2ccccc2c(-c2ccccc2)nn1Cc1ccccc1
-0.867

Entry to check: CCCc1cc(-c2n[nH]c(=S)n2Cc2ccccc2)cs1
1.74

Entry to check: O=c1cc(N2CCCCC2)c(-c2ccccc2)nn1Cc1cccc(F)c1
3.46

Entry to check: CCOC(=O)C1=C(CN2CCc3ccccc32)NC(=O)NC1c1ccc(Cl)cc1 (configuration not stated)
-1.26

Entry to check: CC1(C)CC2CC(C)(CN2c2ncnc3ccc(Br)cc23)C1 (configuration not stated)
5.43

Entry to check: COc1ccccc1NC(=O)CSc1nnc(Cn2nnc(-c3ccccc3)n2)n1-c1ccccc1
3.99

Entry to check: CC(C)Oc1ccc(Cc2n[nH]c(=S)n2Cc2ccccc2)cc1Cl
2.28

Entry to check: CCOc1ccc(NC(=O)CSc2ncnc3c2sc2ccccc23)cc1
80.1

Entry to check: Cc1nc2ccccc2c(-c2ccccc2)c1C(=O)c1ccccc1
-0.11

Entry to check: COC(=O)C1=C(C)N(C)C(C)=C(C(=O)OC)C1c1cccc(Br)c1
1.49

Entry to check: Cc1cc(NC(=O)CN2CCCC(C)C2)n(-c2nc3ccccc3s2)n1 (configuration not stated)
-6.69

Entry to check: CSc1nc2ccccc2c(=O)n1Cc1ccc(F)cc1
0.81

Entry to check: COc1ccc(C)c(Cn2c(-c3nonc3N)nc3ccccc32)c1
1.52

Entry to check: CC(=O)c1ccc2c(c1)c1ccccc1n2CC(C)C
9.42

Entry to check: O=C(COC(=O)c1ccccc1)Nc1ccccc1Sc1ccccc1
-4.62

Entry to check: COc1c2c(cc3occ(-c4ccc5c(c4)OCO5)c(=O)c13)OC(C)(C)C=C2
4.12

Entry to check: O=c1c2ccccc2nc2n1C1(CCCCC1)Cc1ccccc1-2
-4.35

Entry to check: CN(C)Cc1ccc(F)cc1Sc1cc(Cl)ccc1Cl
2.77

Entry to check: FC(F)(F)c1cccc(-c2cc3ccccc3nc2N2CCCC2)c1
-3.28

Entry to check: COC(=O)c1sc2[nH]c(=S)n(N)c(=O)c2c1C
66.3

---

Assay: cAMP induction in EP2, EP4, beta2-AR and parental cells, confirmation, counter-screen for EP2 modulator project, cell-based, five parallel assays, C6 glioma, HEK293 (AID 1080)
Settings: cAMP HTRF induction, measured here: parent C6 cells counter-screen
The whole screen tested about 1,300 compounds, of which about 640 (49%) were called active. So high a share suggests a set chosen from earlier hits. These entries were drawn from the full list.
I'd appreciate it if you could supply cAMP induction values for the items below.
Unit % implied. Number only.

What does the data say about its cAMP induction? Entry: CC[C@@H]1Cc2cc(O)ccc2C2=C1c1ccc(O)cc1C[C@H]2CC
2.02

Entry to check: O=C(Nc1ccccc1N1CCCCC1)c1ccc2nccnc2c1
-3.85

Entry to check: CC1(C)Cc2nc3sc4c(SCC(=O)NC(c5ccccc5)c5ccccc5)ncnc4c3cc2CO1
70

Entry to check: CCOC(=O)c1c(N)nn(C(=O)c2ccccc2)c1-c1ccccc1
-2.53

Entry to check: Cc1ccccc1-c1n[nH]c(=S)n1/N=C/c1ccc(-c2ccccc2Br)o1
19.4

Entry to check: Cc1ccc(-n2c(SCC(=O)Nc3ccc4c(c3)OCO4)nnc2-c2ccoc2C)cc1
-1.05

Entry to check: CCCCCn1c(SCCC(C)C)nc2c1c(=O)[nH]c(=O)n2C
-0.767

Entry to check: Cc1cc(C#N)c(SCC(N)=O)nc1-c1ccc(F)cc1
-4.05

Entry to check: CCN1CCN(c2c(Cl)cccc2NC(=O)c2ccc(Br)o2)CC1
10.5

Entry to check: O=c1[nH]c(CSc2ncc(-c3ccc(F)cc3)n2Cc2ccco2)nc2ccccc12
-5.69

Entry to check: NC(=O)COc1ccc(C23CC4CC(CC(C4)C2)C3)cc1
-0.99

---

Assay: cAMP induction in EP2, EP4, beta2-AR and parental cells, confirmation, counter-screen for EP2 modulator project, cell-based, five parallel assays, C6 glioma, HEK293 (AID 1080)
Settings: cAMP HTRF induction, measured here: cAMP conditions counter-screen
About 640 (49%) of roughly 1,300 compounds were called active. The set was probably picked from earlier hits. Not all results are given here.
I'd appreciate it if you could supply cAMP induction values for the items below.
Record the result as number plus unit.

What does the data say about its cAMP induction? Entry: FC(F)(F)c1cccc(-c2cc3ccccc3nc2N2CCCC2)c1
-2.73%

Entry to check: CC1CCN(c2nc3c(c(=O)[nH]c(=O)n3C)n2CCCc2ccccc2)CC1
-1.35%

Entry to check: COC(=O)CSc1nc2c(c(C3CC=CCC3)c1C#N)CCC2 (stereo unspecified)
3.4%

Entry to check: Cc1cccc(Cn2c(N3CCN(c4ccccc4)CC3)nc3c2c(=O)n(C)c(=O)n3C)c1
5.21%

Entry to check: CCOC(=O)C(CC)Sc1ncnc2c1nnn2-c1ccc(F)cc1 (stereo unspecified)
0.993%

Entry to check: O=C(Nc1ccccc1N1CCCCC1)c1cccc(F)c1
-6.32%

Entry to check: COc1ccccc1NC(=O)CSc1nnc(Cn2nnc(-c3ccccc3)n2)n1-c1ccccc1
2.46%

Entry to check: CCOCC(=O)Nc1sc2c(c1C(=O)OCC)CCCC2
3.98%

Entry to check: CCOC(=O)c1c(C2CC2)csc1NC(=O)CSCc1c(C)noc1C
-2.02%

Entry to check: COC(=O)c1sc2[nH]c(=S)n(N)c(=O)c2c1C
67.6%

Entry to check: CC(C)(C)c1nc2ccccc2c(=O)n1N1C(=O)c2ccccc2C1=O
5.06%

Entry to check: CC(C)NC(=S)NN=C1CCCCCCCCCCC1
2.87%

Entry to check: CC1(C)CC2CC(C)(CN2c2ncnc3ccc(Br)cc23)C1 (stereo unspecified)
6.56%

Entry to check: Cc1ccccc1C(=O)Nc1ccccc1Sc1ccccc1
-1.62%

Entry to check: CSc1nc2ccccc2c(=O)n1Cc1ccc(F)cc1
-3.28%

Entry to check: Oc1ccc(/C=N/N(Cc2ccccc2)c2ccccc2)cc1
-0.103%

Entry to check: CCC(C)(C)c1ccc(OCC(=O)N(C)C)c(C(C)(C)CC)c1
-1.65%

Entry to check: O=c1c2ccccc2c(-c2ccc(Br)cc2)nn1Cc1ccccc1
-3.64%

Entry to check: Cc1ccccc1-c1n[nH]c(=S)n1/N=C/c1ccc(-c2ccccc2Br)o1
22.4%

Entry to check: CCc1ccccc1NC(=O)/C(=C/c1ccccc1)c1ccccc1
-0.563%

Entry to check: Cc1cc(C#N)c(SCC(N)=O)nc1-c1ccc(F)cc1
2.14%

Entry to check: CC(C)Oc1ccc(Cc2n[nH]c(=S)n2Cc2ccccc2)cc1Cl
0.63%

Entry to check: CSc1ncnc2sc(C)c(C)c12
5.03%

Entry to check: O=c1c2ccccc2c(-c2ccccc2)nn1Cc1ccccc1
-1.54%

Entry to check: CC[C@@H]1Cc2cc(O)ccc2C2=C1c1ccc(O)cc1C[C@H]2CC
6.45%

Entry to check: O=c1c2ccccc2nc2n1C1(CCCCC1)Cc1ccccc1-2
0.00333%
